assay name: Tmax in ICR-CD1 mouse plasma at 40 mg/kg, po
Format: ADME, organism-based
measured endpoint: Tmax (h)
Write the value in h as a bare number.

Quick note, Tmax for CCC1=C(CC)/C(=C/NC2CCCCC2)N=C1c1ccc(C)[nH]1 landed at 30

###

Field: selectivity ratio. Provide a value for each of the molecules that follow.
assay name: in vitro
condition context: human
Description: Selectivity index, ratio of IC50 for cytotoxicity against human HepG2 cells to IC50 for antiplasmodial activity against asexual blood-stage Plasmodium falciparum D6
No unit in the answer, please; the number alone is enough.

Quick note, selectivity ratio for COC1=C(OC)/C(=C/NC2CCCCCC2)N=C1c1ccc[nH]1 landed at 290

Quick note, selectivity ratio for FC(F)(F)[C@H]1CC[C@H](N/C=C2\N=C(c3ccc[nH]3)C3=C2CCCC3)CC1 landed at 366

Quick note, selectivity ratio for CCC1=C(CC)/C(=C/NC23C[C@H]4C[C@@H](C2)C[C@@H](C3)C4)N=C1c1ccc(CC)[nH]1 landed at 1580

Quick note, selectivity ratio for CCc1ccc(C2=N/C(=C\NC3CCCCC3)C3=C2OCCO3)[nH]1 landed at 308

Quick note, selectivity ratio for CCC1=C(C)/C(=C/NC23C[C@H]4C[C@@H](C2)C[C@@H](C3)C4)N=C1c1ccc(CC)[nH]1 landed at 3270

Quick note, selectivity ratio for C(/NC12C[C@H]3C[C@@H](C1)C[C@@H](C2)C3)=C1/N=C(c2ccc[nH]2)C2=C1OCCO2 landed at 444

Quick note, selectivity ratio for COC(=O)[C@H]1CC[C@H](N/C=C2\N=C(c3ccc[nH]3)C3=C2CCCC3)CC1 landed at 334

Quick note, selectivity ratio for CCC1=C(CC)/C(=C/NC23C[C@H]4C[C@@H](C2)C[C@@H](C3)C4)N=C1c1ccc(Cc2ccc(OC)cc2)[nH]1 landed at 775

###

Field: log10(microsomal CLint at 1 h). Provide a value for each of the compounds that follow.
assay name: in vitro
condition context: mouse, liver microsomes
Transform log10 | Measure microsomal CLint at 1 h | Unit µL/min/mg

Quick note, log10(microsomal CLint at 1 h) for CCc1ccc(C2=N/C(=C\NC3CCCCC3)C(OC)=C2OC)[nH]1 landed at 1.72

Quick note, log10(microsomal CLint at 1 h) for C(/NC1CCCCCC1)=C1/N=C(c2ccc[nH]2)C2=C1OCCO2 landed at 1.90

Quick note, log10(microsomal CLint at 1 h) for COC1=C(OC)/C(=C/NC2CCCCC2)N=C1c1ccc[nH]1 landed at 1.87

Quick note, log10(microsomal CLint at 1 h) for CCC1=C(CC)/C(=C/NC2CCCCCCC2)N=C1c1ccc(Br)[nH]1 landed at 1.02

Quick note, log10(microsomal CLint at 1 h) for CCC1=C(CC)/C(=C/NC2CCCCCCC2)N=C1c1ccc(C)[nH]1 landed at 1.23

Quick note, log10(microsomal CLint at 1 h) for C(/NC1CCCCC1)=C1/N=C(c2ccc[nH]2)C2=C1OCCO2 landed at 1.94

Quick note, log10(microsomal CLint at 1 h) for CCC1=C(CC)/C(=C/NC2CCCCC2)N=C1c1ccc(C)[nH]1 landed at 1.30

Quick note, log10(microsomal CLint at 1 h) for CCC1=C(CC)/C(=C/NC23C[C@H]4C[C@@H](C2)C[C@@H](C3)C4)N=C1c1ccc(C)[nH]1 landed at 1.14

Quick note, log10(microsomal CLint at 1 h) for CC1=C(C)/C(=C/NC2CCCCC2)N=C1c1ccc(C)[nH]1 landed at 1.57

Quick note, log10(microsomal CLint at 1 h) for COc1ccc(Cc2ccc(C3=N/C(=C\NC4CCCCCC4)C4=C3CCCC4)[nH]2)cc1 landed at 0.32

Quick note, log10(microsomal CLint at 1 h) for COC(=O)[C@H]1CC[C@H](N/C=C2\N=C(c3ccc[nH]3)C3=C2CCCC3)CC1 landed at 2.13

Quick note, log10(microsomal CLint at 1 h) for CCC1=C(C)/C(=C/NC2CCCCCC2)N=C1c1ccc(CC)[nH]1 landed at 1.34

Quick note, log10(microsomal CLint at 1 h) for CCC1=C(CC)/C(=C/NC2CCCCC2)N=C1c1ccc[nH]1 landed at 1.54

Quick note, log10(microsomal CLint at 1 h) for CCC1=C(CC)/C(=C/NC2CCCCCC2)N=C1c1ccc(Br)[nH]1 landed at 1.37

Quick note, log10(microsomal CLint at 1 h) for CCC1=C(CC)/C(=C/NC23CC4CC(CC(C4)C2)C3)N=C1c1cc2ccccc2[nH]1 landed at 1.45

Quick note, log10(microsomal CLint at 1 h) for CCC1=C(CC)/C(=C/NC2CCCCCC2)N=C1c1ccc(CC)[nH]1 landed at 0.72

Quick note, log10(microsomal CLint at 1 h) for COC1=C(OC)/C(=C/NC23C[C@H]4C[C@@H](C2)C[C@@H](C3)C4)N=C1c1ccc[nH]1 landed at 1.51

Quick note, log10(microsomal CLint at 1 h) for CCC1=C(CC)/C(=C/NC2CCCCCCC2)N=C1c1ccc(Cl)[nH]1 landed at 1.09

Quick note, log10(microsomal CLint at 1 h) for CCC1=C(CC)/C(=C/NC2CCCCCC2)N=C1c1ccc(C)[nH]1 landed at 1.22

Quick note, log10(microsomal CLint at 1 h) for CCC1=C(CC)/C(=C/NC23C[C@H]4C[C@@H](C2)C[C@@H](C3)C4)N=C1c1ccc(Br)[nH]1 landed at 0.87

###

Field: efflux ratio at 1 h. Provide a value for each of the compounds that follow.
Tested on: MDR1 (human)
assay name: Efflux ratio, ratio of apparent permeability across apical to basolateral side over basolateral to apical side in MDCK transfected with human MDR1 cells incubated for 1 hr by LC-MS analysis
condition context: dog

Quick note, efflux ratio at 1 h for CCC1=C(C)/C(=C/NC23C[C@H]4C[C@@H](C2)C[C@@H](C3)C4)N=C1c1ccc(CC)[nH]1 landed at 1

Quick note, efflux ratio at 1 h for CCC1=C(CC)/C(=C/NC2CCCCC2)N=C1c1ccc(Cl)[nH]1 landed at 0.17

Quick note, efflux ratio at 1 h for CCC1=C(CC)/C(=C/NC23C[C@H]4C[C@@H](C2)C[C@@H](C3)C4)N=C1c1cc2cc(Cl)ccc2[nH]1 landed at 0.37

Quick note, efflux ratio at 1 h for COC1=C(OC)/C(=C/NC2CCCCCC2)N=C1c1ccc[nH]1 landed at 2.7

Quick note, efflux ratio at 1 h for CCC1=C(CC)/C(=C/NC2CCCCCC2)N=C1c1ccc(Br)[nH]1 landed at 0.26

Quick note, efflux ratio at 1 h for CCC1=C(CC)/C(=C/NC23C[C@H]4C[C@@H](C2)C[C@@H](C3)C4)N=C1c1ccc(Cl)[nH]1 landed at 0.22

Quick note, efflux ratio at 1 h for C(/NC12C[C@H]3C[C@@H](C1)C[C@@H](C2)C3)=C1/N=C(c2ccc[nH]2)C2=C1OCCO2 landed at 6.1

Quick note, efflux ratio at 1 h for C[C@H]1CC[C@H](N/C=C2\N=C(c3ccc[nH]3)C3=C2CCCC3)CC1 landed at 0.85

Quick note, efflux ratio at 1 h for CCC1=C(CC)/C(=C/N[C@H]2CC[C@H](C)CC2)N=C1c1ccc[nH]1 landed at 8.7

###

assay name: Solubility of the compound in potassium phosphate buffer at pH 7.4 by UV-vis spectroscopy
condition context: buffer
Field: solubility. Provide a value for each of the molecules that follow.

Quick note, solubility for CCc1ccc(C2=N/C(=C\NC3CCCCCC3)C(OC)=C2OC)[nH]1 landed at 56.1 µM

Quick note, solubility for CCc1ccc(C2=N/C(=C\NC3CCCCC3)C(OC)=C2OC)[nH]1 landed at 99.6 µM

Quick note, solubility for CCc1ccc(C2=N/C(=C\NC3CCCCCC3)C3=C2OCCO3)[nH]1 landed at 52.1 µM

Quick note, solubility for CCC1=C(CC)/C(=C/NC2CCCCC2)N=C1c1ccc(Br)[nH]1 landed at 4.46 µM

Quick note, solubility for CCC1=C(CC)/C(=C/NC2CCCCCCC2)N=C1c1ccc(Br)[nH]1 landed at 6.28 µM

Quick note, solubility for COc1ccc(Cc2ccc(C3=N/C(=C\NC4CCCCCC4)C4=C3CCCC4)[nH]2)cc1 landed at 11.4 µM

Quick note, solubility for CCC1=C(C)/C(=C/NC2CCCCCCC2)N=C1c1ccc(CC)[nH]1 landed at 10 µM

Quick note, solubility for CCC1=C(CC)/C(=C/NC23C[C@H]4C[C@@H](C2)C[C@@H](C3)C4)N=C1c1ccc(C)[nH]1 landed at 10.9 µM

Quick note, solubility for CCC1=C(CC)/C(=C/NC23C[C@H]4C[C@@H](C2)C[C@@H](C3)C4)N=C1c1cc2cc(Cl)ccc2[nH]1 landed at 18.3 µM

Quick note, solubility for CCC1=C(CC)/C(=C/NC2CCCCCC2)N=C1c1ccc(Cl)[nH]1 landed at 14.4 µM

Quick note, solubility for CCC1=C(CC)/C(=C/NC2CCCCCCC2)N=C1c1ccc(-c2ccccc2)[nH]1 landed at 4.62 µM

Quick note, solubility for COc1ccc(Cc2ccc(C3=N/C(=C\NC4CCCCCC4)C4=C3OCCO4)[nH]2)cc1 landed at 5.52 µM

Quick note, solubility for COC1=C(OC)/C(=C/NC2CCCCCC2)N=C1c1ccc[nH]1 landed at 199 µM

Quick note, solubility for CCC1=C(CC)/C(=C/NC2CCCCCCC2)N=C1c1ccc(Cl)[nH]1 landed at 5.37 µM

Quick note, solubility for COc1ccc(C2=C(c3ccc(OC)cc3)/C(=C/NC34C[C@H]5C[C@@H](C3)C[C@@H](C4)C5)N=C2c2ccc[nH]2)cc1 landed at 10.7 µM

Quick note, solubility for CCC1=C(CC)/C(=C/NC2CCCCC2)N=C1c1ccc(CC)[nH]1 landed at 31.3 µM

Quick note, solubility for CCC1=C(CC)/C(=C/NC2CCCCCCC2)N=C1c1ccc(C)[nH]1 landed at < 3.125 µM

Quick note, solubility for CCC1=C(CC)/C(=C/NC2CCCCC2)N=C1c1ccc(-c2ccc(OC)cc2)[nH]1 landed at < 3.125 µM

Quick note, solubility for C(/NC12C[C@H]3C[C@@H](C1)C[C@@H](C2)C3)=C1/N=C(c2ccc[nH]2)C2=C1OCCO2 landed at 114 µM
